MEASURED_ENDPOINT: melting point

>>> value("Cc1ccc(S(=O)(=O)Nc2ccc([N+](=O)[O-])cc2Cl)cc1")
"167 to 168 °C"
>>> value("CCCCC(=O)Nc1ncc([N+](=O)[O-])s1")
"155 to 156 °C"
>>> value("CCN(Cc1ccc(Cl)nc1)C(=NC#N)NC")
"122 to 123 °C"

* * *

Each item that follows carries a reported melting point.
MEASURED_ENDPOINT: melting point

>>> value("CC(=O)Nc1cc(O)c(C(=O)NC2CCN(Cc3ccccc3)CC2)cc1[N+](=O)[O-]")
"220 to 222 °C"
>>> value("COc1cc2ccc(C(=O)N3CCN(C(=O)c4cc(OC)c(OC)c(OC)c4)CC3)cc2cc1OC")
"224 to 226 °C"
>>> value("COC(=O)c1ccc([N+](=O)[O-])c([N+](=O)[O-])c1")
"85 to 86 °C"
>>> value("CCOC(=O)c1ccc(Cl)c(S(=O)(=O)Cl)c1")
"143 to 145 °C"
>>> value("Nc1ncnc2c1ncn2C1OC(C(O)C(=O)OCc2ccccc2)C(O)C1O (stereo not given)")
"144 to 145 °C"
